Biological target: OXA-10 (class D β-lactamase) (Pseudomonas aeruginosa)
Sequence (P14489 20-266, species assumed): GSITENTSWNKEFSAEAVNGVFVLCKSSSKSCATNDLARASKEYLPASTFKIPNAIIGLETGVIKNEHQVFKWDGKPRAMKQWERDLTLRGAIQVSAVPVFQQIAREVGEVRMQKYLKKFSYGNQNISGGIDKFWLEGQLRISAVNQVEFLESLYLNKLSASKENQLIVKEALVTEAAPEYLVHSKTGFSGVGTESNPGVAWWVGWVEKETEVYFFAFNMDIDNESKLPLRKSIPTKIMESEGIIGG
Test: β-Lactamase assay (nitrocefin colour change), OXA-10
Conditions: nitrocefin 100 μM, 10 nM enzyme, 5 min pre-incubation; read-out: IC50s OXA-10
Entries whose IC50 is below 20 µM take Condition met; entries at or above 20 µM take Condition not met.

Worked examples follow.
| SMILES | LABEL |
| --- | --- |
| O=C(O)c1c(Cl)c(Cl)c(Cl)c(Cl)c1C(=O)Nc1ccc(OCc2cccc(OC(F)(F)F)c2)c(Cl)c1 | Condition met |
| O=C(O)c1c(Br)c(Br)c(Br)c(Br)c1C(=O)Nc1ccc(OCc2cccc(C(F)(F)F)c2)c(Cl)c1 | Condition met |
| CCCCCCCCOc1ccc(NC(=O)c2c(Cl)c(Cl)c(Cl)c(Cl)c2C(=O)O)cn1 | Condition not met |

Query block: Could you please tell me whether IC50 recorded for `O=C(O)c1c(Cl)c(Cl)c(Cl)c(Cl)c1C(=O)Nc1ccc(OCc2cccc(C(F)(F)F)c2)c(Cl)c1` is less than 20 µM?
Result block: Condition not met

Query block: Could you please tell me whether IC50 recorded for `CCCCCCCCOc1ccc(NC(=O)c2c(Br)c(Br)c(Br)c(Br)c2C(=O)O)cc1` is less than 20 µM?
Result block: Condition met

Query block: Could you please tell me whether IC50 recorded for `O=C(O)c1c(Cl)c(Cl)c(Cl)c(Cl)c1C(=O)Nc1ccc(Oc2cc(C(F)(F)F)cc(C(F)(F)F)c2)cc1` is less than 20 µM?
Result block: Condition not met

###

Biological target: TEM-1 (class A β-lactamase) (Escherichia coli, UniProt P62593)
Sequence (P62593 24-286 limits assumed): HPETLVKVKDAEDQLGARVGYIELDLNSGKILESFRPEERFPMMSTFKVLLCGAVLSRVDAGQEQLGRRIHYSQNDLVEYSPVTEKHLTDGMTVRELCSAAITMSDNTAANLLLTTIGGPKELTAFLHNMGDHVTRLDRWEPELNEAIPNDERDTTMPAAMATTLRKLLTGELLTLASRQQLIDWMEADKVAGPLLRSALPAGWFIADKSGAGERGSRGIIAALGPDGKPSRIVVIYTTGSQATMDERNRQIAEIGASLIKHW
Assay: β-Lactamase assay (nitrocefin colour change), TEM-1
Type: biochemical
Details: Table 10; class symbols x/xx/xxx, key not given
PARAMETER MEASURED: TEM-1

A selection of reference data follows.
| COMPOUND | TEM-1 |
| --- | --- |
| O=C(O)c1c(Cl)c(Cl)c(Cl)c(Cl)c1C(=O)Nc1ccc(OCc2cccc(OC(F)(F)F)c2)c(Cl)c1 [Compound 419] | xxx |
| O=C(O)c1ccc([N+](=O)[O-])cc1C(=O)Nc1ccc(OCc2cccc(OC(F)(F)F)c2)c(Cl)c1 [Compound 422] | xx |
| CC(Oc1ccc(NC(=O)c2c(Br)c(Br)c(Br)c(Br)c2C(=O)O)cc1Cl)c1ccccc1 (stereo not shown) [Compound 382] | xxx |
| O=C(O)c1c(Cl)c(Cl)c(Cl)c(Cl)c1C(=O)Nc1cccc(Oc2ccccc2)c1 [Compound 268] | xxx |
| O=C(O)c1c(Cl)c(Cl)c(Cl)c(Cl)c1C(=O)Nc1ccc(Cl)c(C(F)(F)F)c1 [Compound 258] | xxx |

Query block: If you can, please state the reported TEM-1 value of CCCCCCCCOc1ccc(NC(=O)c2c(Br)c(Br)c(Br)c(Br)c2C(=O)O)cc1 [Compound 274] .
Result block: xxx

Query block: If you can, please state the reported TEM-1 value of O=C(O)c1c(F)c(F)c(F)c(F)c1C(=O)Nc1ccc(OCc2cccc(C(F)(F)F)c2)c(Cl)c1 [Compound 388] .
Result block: xx

###

Measured IC50 values are reported for all entries that follow.
Target: P99 (class C β-lactamase) (Enterobacter cloacae)
Sequence (P05364 21-381): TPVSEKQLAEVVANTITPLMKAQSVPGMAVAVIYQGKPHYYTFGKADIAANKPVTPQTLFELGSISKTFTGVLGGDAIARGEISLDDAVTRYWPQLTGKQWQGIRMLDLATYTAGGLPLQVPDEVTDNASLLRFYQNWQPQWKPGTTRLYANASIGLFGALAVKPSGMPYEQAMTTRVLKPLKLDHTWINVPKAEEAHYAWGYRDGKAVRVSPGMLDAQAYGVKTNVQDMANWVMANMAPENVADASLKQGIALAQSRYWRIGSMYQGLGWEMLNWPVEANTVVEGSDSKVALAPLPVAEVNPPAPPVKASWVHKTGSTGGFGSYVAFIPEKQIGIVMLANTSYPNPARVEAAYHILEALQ
Assay: β-Lactamase assay (nitrocefin colour change), P99
Settings: nitrocefin 100 μM, 10 nM enzyme, 5 min pre-incubation; read-out: IC50s P99
Lab note: write values as number then unit, every time.

A selection of reference data follows.
| SMILES | PARAMETER MEASURED | RESULT |
| --- | --- | --- |
| CCCCCCCCOc1ccc(NC(=O)c2c(Cl)c(Cl)c(Cl)c(Cl)c2C(=O)O)cc1 | IC50 | 10.3 µM |
| CCCCCCCCCCCCCCCCOc1ccc(NC(=O)c2c(Cl)c(Cl)c(Cl)c(Cl)c2C(=O)O)cc1 | IC50 | 0.4 µM |

Proceeding to the next compound to report its IC50.
Query block: If you can, please state the reported IC50 value of `CCCCCCCCOc1ccc(NC(=O)c2ccccc2C(=O)O)cc1Cl` .
Result block: 10.3 µM
